Molecular target: HDAC6 enzyme (Homo sapiens)
Construct: transducing full length HDAC6 gene into Sf-9 insect cells; GST; purchased SignalChem; host or cells: Sf-9 insect cells
Assay: HDAC6 enzyme inhibitory activity (HDAC-Glo I/II Assay kit)
Type: biochemical
Details: 10 μM; wells without enzyme = 100% inhibition; read-out: HDAC6 inhibitory rate (%) (10 μM)
quantity name: inhibition at 10 µM (%)

molecule="Cn1nc(C(F)(F)F)cc1-c1c(F)cccc1N1Cc2ccc(-c3nnc(C(F)F)o3)cc2C1=O [Example 431]" assay_value=100
molecule="CS(=O)(=O)c1cncc(-c2ccccc2N2Cc3ccc(-c4nnc(C(F)F)o4)cc3C2=O)c1 [Example 314]" assay_value=101
molecule="O=C(N[C@@H]1CCCC[C@H]1N1Cc2ncc(-c3nnc(C(F)F)o3)cc2C1=O)c1ccccc1 [Example 465]" assay_value=99
molecule="O=C1c2cc(-c3nnc(C(F)F)o3)ccc2CN1[C@@H]1CCCN(C(=O)C(F)F)[C@@H]1c1ccc(F)cc1 (racemic) [Example 624]" assay_value=100

----------
Target: HDAC6 enzyme (Homo sapiens)
Construct: transducing full length HDAC6 gene into Sf-9 insect cells; GST; purchased SignalChem; host or cells: Sf-9 insect cells
Sequence (Q9UBN7 1-1215): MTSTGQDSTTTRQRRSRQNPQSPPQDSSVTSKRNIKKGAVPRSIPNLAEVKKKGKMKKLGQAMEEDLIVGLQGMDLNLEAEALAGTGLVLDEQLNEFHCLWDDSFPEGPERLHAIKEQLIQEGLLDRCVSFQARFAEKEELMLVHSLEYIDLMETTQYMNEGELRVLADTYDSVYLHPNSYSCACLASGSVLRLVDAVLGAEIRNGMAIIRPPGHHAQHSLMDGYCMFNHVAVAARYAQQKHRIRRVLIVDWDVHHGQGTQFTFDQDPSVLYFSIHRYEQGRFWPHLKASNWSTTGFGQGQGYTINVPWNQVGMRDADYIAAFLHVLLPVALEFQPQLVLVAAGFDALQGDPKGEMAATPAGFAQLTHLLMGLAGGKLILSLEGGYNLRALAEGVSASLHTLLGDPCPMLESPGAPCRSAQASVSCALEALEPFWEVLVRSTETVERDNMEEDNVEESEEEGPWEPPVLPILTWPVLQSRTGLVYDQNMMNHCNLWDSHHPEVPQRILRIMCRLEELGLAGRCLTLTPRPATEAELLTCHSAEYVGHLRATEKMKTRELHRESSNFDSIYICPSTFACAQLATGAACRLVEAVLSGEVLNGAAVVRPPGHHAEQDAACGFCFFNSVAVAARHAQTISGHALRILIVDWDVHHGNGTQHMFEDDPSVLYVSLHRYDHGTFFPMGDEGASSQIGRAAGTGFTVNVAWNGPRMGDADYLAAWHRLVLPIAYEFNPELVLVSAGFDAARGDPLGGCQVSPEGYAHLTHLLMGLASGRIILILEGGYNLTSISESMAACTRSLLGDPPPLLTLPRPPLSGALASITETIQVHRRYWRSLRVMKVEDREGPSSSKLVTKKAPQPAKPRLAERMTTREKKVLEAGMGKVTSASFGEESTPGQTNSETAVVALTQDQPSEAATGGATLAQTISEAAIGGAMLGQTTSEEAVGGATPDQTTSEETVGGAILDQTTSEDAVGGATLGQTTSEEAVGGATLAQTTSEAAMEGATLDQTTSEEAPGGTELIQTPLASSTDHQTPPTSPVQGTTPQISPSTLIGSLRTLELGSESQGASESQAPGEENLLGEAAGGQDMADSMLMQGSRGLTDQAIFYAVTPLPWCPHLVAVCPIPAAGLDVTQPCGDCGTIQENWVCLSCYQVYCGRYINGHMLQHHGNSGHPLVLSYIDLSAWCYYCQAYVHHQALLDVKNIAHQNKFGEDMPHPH
Assay: HDAC6 enzyme inhibitory activity (HDAC-Glo I/II Assay kit)
Format: biochemical
Conditions: 10 μM; wells without enzyme = 100% inhibition; read-out: HDAC6 inhibitory rate (%) (10 μM)
Method: HDAC6 enzyme prepared by transducing full length HDAC6 gene into Sf-9 insect cells and purifying by GST affinity column were purchased from SignalChem. Using this enzyme, HDAC6 enzyme inhibitory activities of the compound of the present invention were evaluated. Enzymes were used after preserved at −70° C. HDAC6 enzyme inhibitory activity of the compound of the present invention was measured using HDAC-Glo™ I/II Assay kit (Promega) according to the following experimental method. […]
quantity name: inhibition at 10 µM (%)

compound="O=C1c2cc(-c3nnc(C(F)F)o3)ccc2CN1[C@@H]1CCC(F)(F)C[C@@H]1c1ccccn1 (relative stereo) [Example 590]" quantity_name="inhibition at 10 µM" assay_value=100
compound="O=C1c2cc(-c3nnc(C(F)F)o3)cc(F)c2CN1C[C@H]1CC(F)(F)CN1S(=O)(=O)C1CC1 [Example 356]" quantity_name="inhibition at 10 µM" assay_value=101
compound="O=C1c2cc(-c3nnc(C(F)F)o3)ccc2CN1c1ccccc1-c1cccc(C2CC2)c1 [Example 286]" quantity_name="inhibition at 10 µM" assay_value=99
compound="O=C1c2cc(-c3nnc(C(F)F)o3)cnc2CN1c1ccc(F)cc1-c1cccc(Cl)c1 [Example 410]" quantity_name="inhibition at 10 µM" assay_value=101
compound="O=C1c2cc(-c3nnc(C(F)F)o3)ccc2CN1[C@@H]1CC(F)(F)CC[C@H]1NC(=O)C(F)(F)C(F)F [Example 636]" quantity_name="inhibition at 10 µM" assay_value=100
compound="O=C1c2cc(-c3nnc(C(F)F)o3)cnc2CN1[C@@H]1COCC[C@H]1Oc1ccccc1F [Example 647]" quantity_name="inhibition at 10 µM" assay_value=100
compound="Cn1nc(C(F)(F)F)cc1-c1cc(F)ccc1N1Cc2c(F)cc(-c3nnc(C(F)F)o3)cc2C1=O [Example 388]" quantity_name="inhibition at 10 µM" assay_value=101
